Provenance of the data: ChEMBL document CHEMBL3988442

- MEASUREMENT TARGET: Polyketide synthase Pks13 (Mycobacterium tuberculosis (strain ATCC 25618 / H37Rv))
- TEST METHOD NOTES: Mycobacterium tuberculosis Polyketide synthase 13 Thioesterase (PKS13)
- Type: functional
- Parameters: scale not given: in the data most compounds retested in dose-response had high values
- TEST PARAMETERS: 30 µM
Screen size: about 67,000 compounds; about 300 (0.45%) showed an effect of 50% or more. Shown is part of a subset that was picked to be rich in strong results.
This section presents compounds with their documented Percent Effect values.
Only the number, expressed in %, is required.

Field: example entries. Status: answers known.
>  <TEST SMILES>
CN(C)[C@@H]1CN(C(=O)Cc2cccc(F)c2)[C@@H]2CCCO[C@H]12

>  <REPORTED>
-3.8

$$$$
>  <TEST SMILES>
COCCN1C(=O)CC[C@@H]2[C@@H]1CCN2Cc1c(C)noc1C

>  <REPORTED>
2.01

$$$$
>  <TEST SMILES>
Fc1cccc(CN2C[C@@H]3COC[C@]3(COCc3ccncc3)C2)c1

>  <REPORTED>
0.554

$$$$
>  <TEST SMILES>
COc1ccc(C(=O)NC2CCN(c3ncccn3)CC2)cc1F

>  <REPORTED>
-18.2

$$$$
>  <TEST SMILES>
COc1ccc2nc(C3CC3)cc(C(=O)NCc3noc(C)n3)c2c1

>  <REPORTED>
83.5

$$$$

Q: Annotate the compound CC(C)COC1CC2(CCN(C(=O)Cc3ccccn3)CC2)C1 with its measured Percent Effect.
Ans: 0.268

====

Recorded measurements of Percent Effect, one per entry
- MEASUREMENT TARGET: Polyketide synthase Pks13 (Mycobacterium tuberculosis (strain ATCC 25618 / H37Rv))
- TEST METHOD NOTES: Mycobacterium tuberculosis Polyketide synthase 13 Thioesterase (PKS13)
- Format: functional
- Parameters: scale not given: in the data most compounds retested in dose-response had high values
- TEST PARAMETERS: 30 µM
About 300 (0.45%) of roughly 67,000 compounds showed an effect of 50% or more. For the sample, strong results were picked, then their nearest neighbours and some compounds at random.
Answer with a number only, understood to be in %.

Some entries whose results are on file:
>  <COMPOUND>
NC(=O)C1CCN(c2cncc(-n3cccn3)n2)CC1

>  <MEASURE NAME>
Percent Effect

>  <MEASURE UNIT>
%

>  <REPORTED>
9.01

$$$$
>  <COMPOUND>
O=C1O[C@@H]2CN(c3ccncc3)C[C@@H]2N1CCCc1ccc(F)cc1

>  <MEASURE NAME>
Percent Effect

>  <MEASURE UNIT>
%

>  <REPORTED>
-35.8

$$$$
>  <COMPOUND>
CNC(=O)CN([C@H]1C[C@H]2CCOC[C@H]2C1)S(=O)(=O)c1ccccc1

>  <MEASURE NAME>
Percent Effect

>  <MEASURE UNIT>
%

>  <REPORTED>
-2.79

$$$$

Q: Fill: Percent Effect (Polyketide synthase Pks13 (Mycobacterium tuberculosis (strain ATCC 25618 / H37Rv))) for this compound Cn1cc(CN2C[C@H](Oc3ncccc3F)[C@H]3OCCC[C@H]32)cn1
Ans: 4.64

Q: Report Percent Effect on Polyketide synthase Pks13 (Mycobacterium tuberculosis (strain ATCC 25618 / H37Rv)) for this entry: CN(C)C(=O)C1CCN(c2cncc(-n3cccn3)n2)CC1
Ans: 9.49

Q: Please look at CCN1C(=O)CC[C@@H]2[C@H]1CCN2S(=O)(=O)c1cccs1 and tell me its recorded Percent Effect on Polyketide synthase Pks13 (Mycobacterium tuberculosis (strain ATCC 25618 / H37Rv)).
Ans: -25.3

Q: Provide Percent Effect, system Polyketide synthase Pks13 (Mycobacterium tuberculosis (strain ATCC 25618 / H37Rv)), entry COCc1nc(C(=O)N2CCCC2c2ccc(OC)cc2)cs1 (stereo unspecified)
Ans: 76.5

Q: Jot down Percent Effect (Polyketide synthase Pks13 (Mycobacterium tuberculosis (strain ATCC 25618 / H37Rv))) of CC(C)c1nc2n(n1)CC(NCc1ncc(-c3ccccc3)o1)CC2 (stereo unspecified) .
Ans: -14.9
